B1: DnaJ homolog subfamily C member 2, residues 451 to 503; numbered along this chain, Q99543 (parent)
chain: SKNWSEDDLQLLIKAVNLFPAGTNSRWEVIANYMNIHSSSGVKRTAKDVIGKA

# Variants of: B1
# method.summary: abundance fitness (aPCA) (normalised: wild type 0, dead -1); higher = more abundant; growth selection in yeast, the domain comes from the species named
# condition.description: Homo sapiens
Give Fulfilled when the value for abundance fitness is at least -0.3. Give Not fulfilled when it is less.

Query block: API: above_or_equal(metric=abundance fitness, cutoff=-0.3) for item `N35S`
Result block: Fulfilled

Query block: API: above_or_equal(metric=abundance fitness, cutoff=-0.3) for item `G51R`
Result block: Fulfilled

Query block: API: above_or_equal(metric=abundance fitness, cutoff=-0.3) for item `P20H`
Result block: Fulfilled

Query block: API: above_or_equal(metric=abundance fitness, cutoff=-0.3) for item `Q10L`
Result block: Fulfilled

Query block: API: above_or_equal(metric=abundance fitness, cutoff=-0.3) for item `S5F`
Result block: Not fulfilled

Query block: API: above_or_equal(metric=abundance fitness, cutoff=-0.3) for item `I50G`
Result block: Fulfilled

Query block: API: above_or_equal(metric=abundance fitness, cutoff=-0.3) for item `K52E`
Result block: Fulfilled

Query block: API: above_or_equal(metric=abundance fitness, cutoff=-0.3) for item `N17K`
Result block: Fulfilled

Query block: API: above_or_equal(metric=abundance fitness, cutoff=-0.3) for item `E28T`
Result block: Not fulfilled

Query block: API: above_or_equal(metric=abundance fitness, cutoff=-0.3) for item `K2D`
Result block: Fulfilled

Query block: API: above_or_equal(metric=abundance fitness, cutoff=-0.3) for item `A21P`
Result block: Fulfilled

Query block: API: above_or_equal(metric=abundance fitness, cutoff=-0.3) for item `W4L`
Result block: Fulfilled

Query block: API: above_or_equal(metric=abundance fitness, cutoff=-0.3) for item `L9Y`
Result block: Fulfilled
